# Test system: MALME-3M melanoma
# test.name: NCI tumour cell line growth inhibition, 48 h
readout.name: TGI

# count of solved cases: 6
CCc1cc2c(c3c1CCCC3=O)CC1(C2)Cc2cc(CC)c3c(c2C1)C(=O)CCC3 :: > 100 µM
CC(CC=O)Nc1nn2c(=O)c3ccccc3nc2s1 (centres undefined) :: > 100 µM
O=C1CNN=C(Cn2nc(-c3ccccc3)c3ccccc3c2=O)N1 :: > 100 µM
OCC(O)C(O)C(O)C(O)c1nn[nH]n1 (centres undefined) :: > 100 µM
Cn1c(=O)c2c(nc(N/N=C3/SCC(=O)N3Cc3ccccc3)n2C)n(C)c1=O :: > 100 µM
C#CCOC(=O)C(=[N+]=[N-])C(=O)CC(C)C :: > 10 µM

Look up TGI for the entries below, preserving their order.
1. Cc1cc(C)n2c(nc3ccccc32)c1C#N
2. c1cc2c(cc1[C@@H]1OC[C@@H]3[C@H]1CO[C@H]3c1ccc3c(c1)OCO3)OCO2
3. CCCCCCCc1ccc(-c2nnc(N=Nc3ccc(OCCCCC)cc3)s2)s1
4. COC(=O)c1ccccc1C1CN=NC12Cc1c(C)ccc(C)c1C2=O (centres undefined)
5. Cc1ccccc1Nc1nc2ccccc2nc1NS(=O)(=O)c1ccccc1

1. > 100 µM
2. > 100 µM
3. > 100 µM
4. > 100 µM
5. > 100 µM

###

# Test system: COLO 205 colon
# test.name: NCI tumour cell line growth inhibition, 48 h
Please respond with reported TGI for every item in the list.

Please supply TGI for each of the following items, keeping them in order.
1. Cc1cc(=O)n2nc(CSc3nnc(Sc4cc(O)ccc4O)s3)sc2n1
2. c1ccc2c3c([nH]c2c1)C1C2CCCCN2C(c2ccncc2)N1CC3 (stereo not drawn)
3. COc1ccc(-c2cc(-c3ccccc3)nc(NCCNc3ccnc4cc(Cl)ccc34)n2)cc1

1: > 100 µM; 2: > 100 µM; 3: 3.83 µM

###

What TGI was measured for each of the following?
# Tested on: 786-0 renal
# test.name: NCI tumour cell line growth inhibition, 48 h

Example entries and their recorded answers appear below.
CCOC(=O)c1c(-c2ccccc2)c(C)cn1C :: > 10 µM
COc1ccc(N=Nc2c(N)nn3c(SC)c(C#N)c(N)nc23)cc1 :: 14.2 µM
CN(C)c1ccc(C2CC(C)(O)Oc3cc4c(cc32)OCO4)cc1 (centres undefined) :: > 100 µM

Kindly indicate its recorded TGI. Item: Cc1ccccc1Nc1nc2ccccc2nc1NS(=O)(=O)c1ccccc1
> 100 µM

###

Consider the following compounds; for each one, report its TGI.
# Tested on: COLO 205 colon
# test.name: NCI tumour cell line growth inhibition, 48 h

Known TGI results, listed for orientation:
O=C1CNN=C(Cn2nc(-c3ccccc3)c3ccccc3c2=O)N1 :: > 100 µM
COc1cc2c(cc1OC)C(=O)/C(=C/c1ccc(N(C)C)cc1)CC2 :: > 10 µM

# next compound below
Give the measured TGI for CC[C@@]12CCC(=S)N(CCSc3ccccc3)[C@@H]1c1c(n(S(=O)(=O)c3ccc(OC)cc3)c3ccccc13)CC2
> 100 µM

###

Assign TGI to each entry below.
# Tested on: COLO 205 colon
# test.name: NCI tumour cell line growth inhibition, 48 h

Example entries begin here.
CCc1cc2c(c3c1CCCC3=O)CC1(C2)Cc2cc(CC)c3c(c2C1)C(=O)CCC3 :: > 100 µM
OCC#Cc1ccccc1C#Cc1ccc(C#Cc2ccccc2)cc1 :: 70.7 µM
O=c1[nH]c2ccc([N+](=O)[O-])cc2nc1/C(=N/Nc1ccccc1)C(O)c1ccco1 (configuration not stated) :: > 100 µM

Please report TGI for every entry that follows.
1. O=C1/C(=C/c2ccc(Cl)cc2)Oc2ccccc21
2. CC(C)=CCCC1(C)C2COC(=O)C21 (configuration not stated)
3. CCOC(=O)c1csc(NC(=O)C(C)N2CCOCC2)n1 (configuration not stated)
4. Clc1cc2ncn(C3CCCCO3)c2cc1Cl (configuration not stated)

1: > 100 µM; 2: > 100 µM; 3: > 100 µM; 4: > 100 µM
